Values from patent US4410548A

Each entry below lists one item and its recorded MABP, maximum percent changes value.
system: DOCA hypertensive rats; assay: antihypertensive activity (mean arterial blood pressure) after oral administration in DOCA hypertensive rats; format: in vivo, rat; details: Table 2 (in brackets); oral dose 100 mg/kg
Reply with a number, then the unit it belongs to.

{"columns": ["molecule", "measuredTarget", "measured"],
 "data": [
  ["COc1cc(C)c([S+](C)[O-])cc1OCCNCC(O)COc1ccccc1C (stereo not shown)", "DOCA hypertensive rats", "-37%"],
  ["COc1cc([S+](C)[O-])c(C)cc1OCCNCC(O)COc1ccc(C)cc1 (stereo not shown)", "DOCA hypertensive rats", "-23%"],
  ["COc1cc([S+](C)[O-])c(C)cc1OCCNCC(O)COc1cccc(C)c1 (stereo not shown)", "DOCA hypertensive rats", "-8%"]
]}

// query Entry COc1cc([S+](C)[O-])c(C)cc1OCCNCC(O)COc1ccccc1C.O=C(O)C(=O)O (stereo not shown) : reported MABP, maximum percent changes = ?
// result -47%

* * *

target: β-adrenoreceptor (Cavia porcellus, UniProt H0W3H1); construct: isolated guinea-pig right atria; from tissue; host or cells: isolated guinea-pig right atria; test: antagonism of positive chronotropic responses to (-)-isoprenaline in isolated guinea-pig right atria; format: cell-based; conditions: Table 1; isolated guinea-pig atria; mean of 4-8 experiments; read-out: pA2 value against chronotropic responses of isoprenaline (converted)
Sequence (H0W3H1 1-470): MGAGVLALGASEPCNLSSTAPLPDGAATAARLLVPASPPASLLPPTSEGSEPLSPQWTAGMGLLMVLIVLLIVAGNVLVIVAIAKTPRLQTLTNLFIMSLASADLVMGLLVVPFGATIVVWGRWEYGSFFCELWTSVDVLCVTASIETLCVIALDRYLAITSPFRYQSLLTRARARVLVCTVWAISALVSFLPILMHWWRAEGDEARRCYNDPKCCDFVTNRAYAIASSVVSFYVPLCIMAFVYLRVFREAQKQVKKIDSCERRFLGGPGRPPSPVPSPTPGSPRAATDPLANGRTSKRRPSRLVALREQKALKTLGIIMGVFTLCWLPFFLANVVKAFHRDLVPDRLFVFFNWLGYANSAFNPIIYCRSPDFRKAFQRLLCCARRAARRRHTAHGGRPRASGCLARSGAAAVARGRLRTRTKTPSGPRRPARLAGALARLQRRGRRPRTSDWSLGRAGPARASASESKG
Where a name gives a salt, the structure may show the parent alone.
Each entry below lists one item and its recorded log10(Kb) value.
On a log10 scale: recorded Kb, unit nM.

Please review the following examples before continuing.
{"columns": ["compound", "log10(Kb)"],
 "data": [
  ["COc1cc(S(C)(=O)=O)c(C)cc1OCCNCC(O)COc1ccccc1.O=C(O)C(=O)O (centres unmarked) [Example 6, oxalate salt]", 2.28],
  ["COc1cc([S+](C)[O-])c(OC)cc1OCCNCC(O)COc1ccccc1C.O=C(O)C(=O)O (centres unmarked) [Example 10, oxalate salt]", 1.47],
  ["COc1cc([S+](C)[O-])c(C)cc1OCCNCC(O)COc1ccccc1C.O=C(O)C(=O)O (centres unmarked) [Example 1, oxalate salt]", 2.58],
  ["COc1cc2c(cc1OCCNCC(O)COc1ccccc1C)CCCC[S+]2[O-] (centres unmarked) [Example 8, oxalate salt]", 1.46]
]}

Now let's try a different one.
// query Entry Cc1ccccc1OCC(O)CNCCOc1ccc(C(N)=O)cc1 (racemic) [(±)-Tolamolol] : reported log10(Kb) = ?
// result 1.23
